Provenance of the data: paper PMC5471521

- TARGET OR TEST SYSTEM: rat β1-AR (Rattus norvegicus, UniProt P18090)
- Construct: host or cells: CHO cells, transient transfection
- Sequence (P18090 whole entry): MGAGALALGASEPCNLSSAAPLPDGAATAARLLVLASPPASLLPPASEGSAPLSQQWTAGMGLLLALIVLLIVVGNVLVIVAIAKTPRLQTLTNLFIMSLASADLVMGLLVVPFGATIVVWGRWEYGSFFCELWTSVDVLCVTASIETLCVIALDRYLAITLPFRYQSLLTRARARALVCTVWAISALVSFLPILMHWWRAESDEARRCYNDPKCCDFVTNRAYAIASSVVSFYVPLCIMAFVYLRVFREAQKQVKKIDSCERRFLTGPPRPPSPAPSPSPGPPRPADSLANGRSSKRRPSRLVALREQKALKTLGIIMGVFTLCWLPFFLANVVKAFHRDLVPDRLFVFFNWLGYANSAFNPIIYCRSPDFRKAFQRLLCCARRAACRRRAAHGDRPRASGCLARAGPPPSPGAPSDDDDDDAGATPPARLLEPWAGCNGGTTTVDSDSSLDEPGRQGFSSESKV
- PROTOCOL DESCRIPTION: 3H-CGP12177 whole-cell binding in transiently transfected CHO cells
MEASURED ATTRIBUTE: Kd (nM)
Use nM as the unit, but write only the number.

## Task Specify Kd for Cc1ccc(OCC(O)C(C)NC(C)C)c2c1CCC2 (stereo not shown) , system rat β1-AR (Rattus norvegicus, UniProt P18090).
## Result 129

---

- PROTOCOL DESCRIPTION: PK analysis in male Sprague-Dawley rats
- Assay type: in vivo
- CONDITIONS USED: male, Sprague-Dawley, plasma, iv; rat, i.v. 6 mg/kg, hydrochloride salt forms
Property: AUC(0-t); scope: individual compounds

{"COMPOUND": "NC(=O)c1ccc(OCCNC[C@H](O)COc2ccc3c(c2)OC[C@@H](COCC2CC2)O3)cc1 [NDD-713]", "ENDPOINT VALUE": "4.6 µM·h"}

Please find the next compound below.
## Task Recall and state the measured AUC(0-t) for O=C1NCc2cc(OCCNC[C@H](O)COc3ccc4c(c3)OC[C@@H](COCC3CC3)O4)ccc21 [NDD-825] .
## Result 3.8 µM·h
